Tested on: Inhibin beta A chain (activin A)
Protocol summary: INHBA (activin A) binders on microarrays, primary screen, biochemical, small-molecule microarray, 635 nm fluorescence scan (AID 1107);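 further: mouse activin A protein probed at 4.33 µg/mL on printed slides; score merges bound-protein fluorescence near 667 nm with spot signal-to-noise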
Test parameters: small-molecule microarray binding, higher = more signal
Attribute measured: composite z-score
One number for each entry.

1. COc1ccc(C#Cc2ccc3c(c2)[C@]2(C(=O)N3)[C@H](C(=O)Nc3nc4ccccc4s3)[C@H]3C(=O)O[C@H](c4ccccc4)[C@H](c4ccccc4)N3[C@@H]2c2ccccc2OCCO)cc1 = 0.648

Give composite z-score for all compounds that follow.
1. CC(C)N1CC=CC23O[C@@H]4/C=C\CCCOC(=O)C4[C@H]2C(=O)N(CCCCCCO)[C@@H]3C1=O (stereo not given in full)
2. CO[C@H]1O[C@H](CO)[C@@H](OC(=O)Nc2ccc(C#N)cc2)[C@@H]2OC(=O)[C@H](Cc3cccc(Br)c3)C/C=C/C[C@@H](Cc3cccc(Br)c3)C(=O)O[C@@H]12

1. 1.03
2. -0.247

Below are some compounds; for each one, tell me its composite z-score.
1. CO[C@H]1O[C@H](CO)[C@@H](OC(=O)Nc2cccc(F)c2)[C@H](OC(=O)Nc2ccccc2-c2ccccc2)[C@H]1OC(=O)Nc1ccccc1-c1ccccc1
2. [N-]=[N+]=Nc1ccccc1C[C@]1(C(=O)NCc2ccccc2)COC(c2ccc(OCCCO)cc2)=N1
3. [N-]=[N+]=Nc1ccccc1C[C@]1(C(=O)O)N=C(c2ccc(OCCCO)cc2)O[C@H]1c1ccccc1N=[N+]=[N-]
4. C[C@]1(C(=O)O)c2ccccc2C(=O)N(Cc2ccc(OC(F)(F)F)cc2)[C@H]1c1ccc(CO)cc1
5. COC(=O)C1N=C(c2ccc(OCCCO)cc2)N(c2ccccc2)O1 (stereo not given)
6. CN1C(=O)C2C=CC(C(O)c3cc(C(F)(F)F)cc(C(F)(F)F)c3)N(NC(=O)OC(C)(C)C)C2C1=O (stereo not given)
7. CN(C)C(=O)[C@@]1(CCC(=O)OC(C)(C)C)N=C(c2ccc(OCCCO)cc2)O[C@H]1c1ccccc1CN=[N+]=[N-]
8. C[C@@]12COC[C@]13C=C(Br)[C@H](C2)[C@@]1(CO1)C3=O

[0.664, 0.386, 0.884, 0.496, 0.453, 0.279, -0.0415, 0.701]
